Where these numbers come from: patent US11028090B2

# ASSAY SYSTEM: BRD4 (BD1+BD2) bromodomain (Homo sapiens (Human), UniProt O60885)
# ASSAY INFO: BRD4 binding inhibition (AlphaScreen, GST-BRD4 vs tetraacetylated histone H4 peptide)
# APPLIED CONDITIONS: GST-BRD4 (BD1+BD2) vs biotinylated acetyl-histone H4 peptide, AlphaScreen; read-out: BRD4 IC50
pIC50: −log10 of the molar value. Where a name gives a salt, the structure may show the parent alone.
QUANTITY MEASURED: pIC50

compound=COc1c(C)ccc2c1nc(NCCCCNC(=O)c1ccccc1F)c1nnc(C)n12 assay_system="BRD4 (BD1+BD2) bromodomain (Homo sapiens (Human), UniProt O60885)" numeric_result=7.40
compound=COc1ccc2c(c1)nc(NCCCCNC(=O)[C@@H](Br)C(C)C)c1nnc(C)n12 assay_system="BRD4 (BD1+BD2) bromodomain (Homo sapiens (Human), UniProt O60885)" numeric_result=8.10
compound=Cc1nnc2c(NCCCCNC(=O)Nc3cccc(F)c3)nc3ccccc3n12 assay_system="BRD4 (BD1+BD2) bromodomain (Homo sapiens (Human), UniProt O60885)" numeric_result=7.17
compound=COCCOc1ccc2c(c1)nc(NCCCCNC(=O)Cc1ccco1)c1nnc(C)n12 assay_system="BRD4 (BD1+BD2) bromodomain (Homo sapiens (Human), UniProt O60885)" numeric_result=8.15

a. COc1ccc2c(c1)nc(NCCCCNC(=O)Cc1cccs1)c1nnc(C)n12
b. CCC(C)CNC(=O)CCCCNc1nc2cc(OC)ccc2n2c(C)nnc12 (centres unmarked)
c. CCCOC(=O)N[C@H](C(=O)NCCCCNc1nc2cc(OCCOC)ccc2n2c(C)nnc12)C(C)C
Exam item: In this exercise, place the 3 compounds in ascending sequence of their recorded pIC50. In your reply, arrange the labels in the requested order.
Marked response: a, b, c
(a: 7.66, b: 7.92, c: 9.00)

1. COc1cc2nc(NCCCCC(=O)NCC(C)C)c3nnc(C)n3c2cc1OC
2. CSc1ccc2c(c1)nc(NCCCCNC(=O)[C@@H](F)C(C)C)c1nnc(C)n12
Exam item: Would you kindly point out which of 1 and 2 has the smaller pIC50 figure? Please respond with the label that marks your chosen entry.
Marked response: 2
(2: 7.21, 1: 7.57)

I. COc1c(C)ccc2c1nc(NCCCCNC(=O)OCC(C)C)c1nnc(C)n12
II. Cc1nnc2c(NCCCCNC(=O)c3ccccc3Cl)nc3ccc(OC(F)(F)F)cc3n12
Exam item: Would you kindly point out which of I and II has the smaller pIC50 figure? Please respond with the label that marks your chosen entry.
Marked response: II
(II: 7.46, I: 7.72)

a. CCc1nnc2c(NCCCCNC(=O)OCC(C)C)nc3cc(OC)c(OC)cc3n12
b. COc1cc2nc(NCCCCNC(=O)CC(C)C)c3nnc(C(F)(F)F)n3c2cc1OC
c. Cc1nnc2c(NCCCCNC(=O)[C@@H](NC(=O)[C@H](C)O)C(C)C)nc3cc(N4CCOCC4)ccc3n12 [Example 504, hydrochloride]
Exam item: In this exercise, place the 3 compounds in ascending sequence of their recorded pIC50. In your reply, arrange the labels in the requested order.
Marked response: b, c, a
(b: 7.04, c: 7.47, a: 7.74)

====

# ASSAY SYSTEM: BRD4 (BD1+BD2) bromodomain (Homo sapiens (Human), UniProt O60885)
# ASSAY INFO: BRD4 binding inhibition (AlphaScreen, GST-BRD4 vs tetraacetylated histone H4 peptide)
# APPLIED CONDITIONS: GST-BRD4 (BD1+BD2) / biotinylated acetyl-histone H4 (Lys5,8,12,16) peptide; read-out: IC50, BRD4 binding inhibition
QUANTITY MEASURED: IC50

Some entries whose results are on file:
smiles=COc1cc2nc(NCCCCNC(=O)C=C(C)C)c3nnc(C)n3c2cc1OC assay_system="BRD4 (BD1+BD2) bromodomain (Homo sapiens (Human), UniProt O60885)" result="≤ 0.05 µM"
smiles=COc1cc2nc(NCCCCNC(=O)CC(C)C)c3nnc(C)n3c2cc1NS(=O)(=O)CC(C)C assay_system="BRD4 (BD1+BD2) bromodomain (Homo sapiens (Human), UniProt O60885)" result="≤ 0.05 µM"

Now, please, on to the next molecule.
Exam item: Data request, read-out IC50, for "COc1cc2nc(NCCCCNC(=O)CC(C)C)c3nnc(C)n3c2cc1F"
Marked response: ≤ 0.05 µM

====

# ASSAY SYSTEM: BRD4 (BD1+BD2) bromodomain (Homo sapiens (Human), UniProt O60885)
# ASSAY INFO: BRD4 binding inhibition (AlphaScreen, GST-BRD4 vs tetraacetylated histone H4 peptide)
# APPLIED CONDITIONS: GST-BRD4 (BD1+BD2) vs biotinylated acetyl-histone H4 peptide, AlphaScreen; read-out: BRD4 IC50
QUANTITY MEASURED: IC50 (nM)

compound=Cc1nnc2c(NCCCCNC(=O)c3ccccc3)nc3cc(NC(=O)C(C)C)ccc3n12 numeric_result=54
compound=Cc1ccc(NC(=O)c2ccc3c(c2)nc(NCCCCNC(=O)CC(C)C)c2nnc(C)n23)c(N)c1 numeric_result=31
compound=CCc1nnc2c(NCCCCNC(=O)OC(C)(C)C)nc3cc(OC)c(OC)cc3n12 numeric_result=76
compound=CC(=O)OCC(=O)NCCCCNc1nc2cc3c(cc2n2c(C)nnc12)OCCO3 numeric_result=30
compound=COc1c(C)ccc2c1nc(NCCCCNC(=O)CC(C)C)c1nnc(C)n12 numeric_result=61

a. COc1ccc2c(c1)nc(NCCCCNC(=O)C(N)C(C)C)c1nnc(C)n12 (centres unmarked)
b. COCCOc1ccc2c(c1)nc(NCCCCNC(=O)COC(C)=O)c1nnc(C)n12
Exam item: # returns the entry with the larger IC50; inputs a and b Please respond with the label that marks your chosen entry.
Marked response: b

====

# ASSAY SYSTEM: BRD4 (BD1+BD2) bromodomain (Homo sapiens (Human), UniProt O60885)
# ASSAY INFO: BRD4 binding inhibition (AlphaScreen, GST-BRD4 vs tetraacetylated histone H4 peptide)
# APPLIED CONDITIONS: GST-BRD4 (BD1+BD2) vs biotinylated acetyl-histone H4 peptide, AlphaScreen; read-out: BRD4 IC50
pIC50: −log10 of the molar value.
QUANTITY MEASURED: pIC50

Some entries whose results are on file:
compound=Cc1nnc2c(NCCCCNC(=O)OC3CCCC3)nc3cc(OC(C)C)ccc3n12 numeric_result=7.62
compound=CCOc1ccc2c(c1)nc(NCCCCNC(=O)OC1CCCC1)c1nnc(C)n12 numeric_result=7.89
compound=Cc1nnc2c(NCCCCNC(=O)[C@@H](O)C(C)C)nc3ccccc3n12 numeric_result=8.30
compound=C#CCNc1cc2c(cc1OC)nc(NCCCCNC(=O)CC(C)C)c1nnc(C)n12 numeric_result=7.43
compound=COc1ccc2c(c1)nc(NCCCCNC(=O)C(F)(F)C(F)(F)C(F)(F)F)c1nnc(C)n12 numeric_result=7.62
compound=Cc1nnc2c(NCCCCNC(=O)c3ccccc3)nc3cc(C(=O)NC(C)C)ccc3n12 numeric_result=7.12

I. COc1cc2nc(-c3ccc4c(c3)nc(NCCCCNC(=O)CC(C)C)c3nnc(C)n34)[nH]c2cc1OC
II. COc1ccc2c(c1)nc(NCCCCNC(=O)CC(C)C)c1nnc(C(F)(F)F)n12
Exam item: # returns the entry with the larger pIC50; inputs I and II Please respond with the label that marks your chosen entry.
Marked response: I

====

# ASSAY SYSTEM: BRD4 (BD1+BD2) bromodomain (Homo sapiens (Human))
# ASSAY INFO: BRD4 binding inhibition (AlphaScreen, GST-BRD4 vs tetraacetylated histone H4 peptide)
# APPLIED CONDITIONS: GST-BRD4 (BD1+BD2) vs biotinylated acetyl-histone H4 peptide, AlphaScreen; read-out: BRD4 IC50
QUANTITY MEASURED: IC50 (nM)

smiles=COc1cc(C(F)(F)F)cc2c1nc(NCCCCNC(=O)CC(C)C)c1nnc(C)n12 assay_system="BRD4 (BD1+BD2) bromodomain (Homo sapiens (Human))" numeric_result=47

1. COc1ccccc1C(=O)NCCCCNc1nc2cc(-c3nc4ccccc4n3C)ccc2n2c(C)nnc12
2. Cc1nnc2c(NCCCCNC(=O)OC(C)(C)C)nc3ccc(Cl)cc3n12
Exam item: # returns the entry with the larger IC50; inputs 1 and 2 Please respond with the label that marks your chosen entry.
Marked response: 2

A. COc1cc2nc(NCCCCNC(=O)OC(C)(C)C)c3nnc(C)n3c2cc1C
B. CCCNc1cc2c(cc1OC)nc(NCCCCNC(=O)CC(C)C)c1nnc(C)n12
Exam item: # returns the entry with the larger IC50; inputs A and B Please respond with the label that marks your chosen entry.
Marked response: A
(A: 61 nM, B: 7 nM)

====

# ASSAY SYSTEM: BRD4 (BD1+BD2) bromodomain (Homo sapiens (Human), UniProt O60885)
# ASSAY INFO: BRD4 binding inhibition (AlphaScreen, GST-BRD4 vs tetraacetylated histone H4 peptide)
# APPLIED CONDITIONS: GST-BRD4 (BD1+BD2) vs biotinylated acetyl-histone H4 peptide, AlphaScreen; read-out: BRD4 IC50
QUANTITY MEASURED: IC50 (nM)

Some entries whose results are on file:
compound="Cc1nnc2c(NCCCCNC(=O)OC(C)C)nc3cc(N4CCOCC4)ccc3n12 [Example 506]" numeric_result=15
compound="COc1c(C)ccc2c1nc(NCCCCNC(=O)c1ccccc1Cl)c1nnc(C)n12 [Example 140]" numeric_result=52
compound="COCCOc1ccc2c(c1)nc(NCCCCNC(=O)OC1CCCC1)c1nnc(C)n12 [Example 371]" numeric_result=7
compound="CCC(C)CC(=O)NCCCCNc1nc2c(OC)c(OC)c(OC)cc2n2c(C)nnc12 (centres unmarked) [Example 196]" numeric_result=32
compound="Cc1nnc2c(NCCCCNC(=O)c3ccccc3)nc3ccc(OC(F)(F)F)cc3n12 [Example 267]" numeric_result=39

a. COc1cc2nc(NCCCCNC(=O)c3ccccc3F)c3nnc(C)n3c2cc1OC [Example 106]
b. Cc1nnc2c(NCCCCNC(=O)[C@H](O)C(C)C)nc3cc(-c4nc5ccccc5n4C)ccc3n12 [Example 235]
c. COCCOc1ccc2c(c1)nc(NCCCCNC(=O)C(C)(C)O)c1nnc(C)n12 [Example 385]
Exam item: In this exercise, place the 3 compounds in ascending sequence of their recorded IC50. In your reply, arrange the labels in the requested order.
Marked response: b, a, c
(b: 11 nM, a: 28 nM, c: 49 nM)
